B1: glmS ribozyme (parent)
chain: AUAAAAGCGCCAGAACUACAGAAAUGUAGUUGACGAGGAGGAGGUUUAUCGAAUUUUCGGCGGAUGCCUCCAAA

variants of: B1; test: self-cleavage kobs at 160 uM GlcN6P; higher = faster cleavage; RNA array; details: with glucosamine-6-phosphate
Fewer inactive variants are shown than the library holds.
Attribute: self-cleavage kobs at 160 uM GlcN6P
Readout Kind: self-cleavage kobs at 160 uM GlcN6P

>>> value("AUAAAAACGCCAGAACUACAGAAAUGUAGUUGACGAGGAGGAGGUUUAUCGAAUUUUCGGCGGAUUCCUCCAAA")
"< 1e-05 s⁻¹"
>>> value("AUAAAAGCGCCAGGACUACAGAAAUGUAGUUGACUAGGAGGAGGUUUAUCGAAUUUUCGACGGAUGCGUCCAAA")
"< 1e-05 s⁻¹"
>>> value("AUAAAAGCGCCAGGACUACAGAAAUGUAGUUGACGAGGAGGAGGUUUAUCGAAUUUUCGGCGGGUGCCUCCAAA")
"0.00428 s⁻¹"
>>> value("AUAAACGCGCCAGAACUACAGAAAUGUACUUGACGAGGAGGAGGUUUAUCGAAUUUUGGGCGGAUGCCUCAAAA")
"6.35e-05 s⁻¹"
>>> value("AUAAAAGCGCCAGAACUACAGAAAUGUAGUUGACGAAGAGGAGAUCUUUCGAAUUUUCGGCGGAUGCCUCUAAA")
"< 1e-05 s⁻¹"
>>> value("AUAAAAGCGCCAGAACUACAGAAAUGUAGUUGACGAGGAGGUGGUUUAUCGAAUUUUCGGCGGAAGCCUCCAAA")
"< 1e-05 s⁻¹"
>>> value("AUAAAAGCGCCAGAACUACAGAAAUGUACCUGACGACGAGGAGGUUUAUCGAAUUUUCGGCGGAUGCCUGCAAA")
"9.14e-05 s⁻¹"
>>> value("AUAAAAGCGCCAGAUCUACAGAAAUGUAGUUGACGAGGAUGAGGUUUCUCGAAUUUUCGGCGGAUGCCUCCAAA")
"< 1e-05 s⁻¹"
>>> value("AUAAAAGCGCCAGAACUACAGAAAUGUAGUUGACGAAGAGGAGGUGUAUCGAGUUUUCGGAGGAUGCCUACAAA")
"< 1e-05 s⁻¹"
>>> value("AUAAAAGCGCCAGAACUACAGAAAUGUAGUUGACGAGGAGGAGGUUUAUCGAUUUUUCGGCGGAGGCCUCCAAA")
"0.000238 s⁻¹"
>>> value("AUAAAAGCGCCAUAACUACAGAAAUGUAGUUGACGAGGAGGAGGUUUUUCGAAUUUUCGGCGGAUGCCUCCAAA")
"< 1e-05 s⁻¹"
>>> value("AUAAAAGUGCCAGAACUACAGAAAUGUAGUUGACGAGGAGGAGGUUUAUCGAAUUCUCGGCGGAUGCCUCCAAA")
"< 1e-05 s⁻¹"
